- Target or system: the molecule itself
- Experiment: cross-linking; apo-proteins: 0.02% glutaric aldehyde, 16 h, 20 °C, protein 1 mg/mL, 20 mM Tricine-KOH pH 7.4, 50 mM KCl, 1 mM DTT, 1 mM EDTA; SDS-PAGE, Coomassie, densitometry; self-association
Readout name: Dimer 50 kDa, % (%)
Answers are plain numbers, in %.

Example cases with answers are listed next.
Asked: Entry recombinant wild type human recoverin (natural protein, UniProt P35243 1-200, looked up, myristoyl group at the N terminus (degree of myristoylation exceeded 89%), recoverin, human, UniProt P35243; cDNA from Y79 retinoblastoma cells, amplified with primers from the start codon to the stop codon, subcloned into pET-15b(+) by NcoI and XhoI; also called rWT; rWT recoverin; source: E. coli pET15b rec/pBB131/BL21(DE3)RILLC+, purified (phenyl-Sepharose, Toyopearl SuperQ-650M)) MGNSKSGALSKEILEELQLNTKFSEEELCSWYQSFLKDCPTGRITQQQFQSIYAKFFPDTDPKAYAQHVFRSFDSNLDGTLDFKEYVIALHMTTAGKTNQKLEWAFSLYDVDGNGTISKNEVLEIVMAIFKMITPEDVKLLPDDENTPEKRAEKIWKYFGKNDDDKLTEKEFIEGTLANKEILRLIQFEPQKVKEKMKNA has what Dimer 50 kDa, %?
Given back: 33.1

Asked: Also, human recoverin mutant F172A (natural protein, UniProt P35243 1-200, looked up, myristoylated (fraction of non-myristoylated forms did not exceed 16%), recoverin, human, UniProt P35243, C-terminal 'black' cluster mutant; Parent construct as m1; source: E. coli, expressed and purified similarly to the rWT protein (phenyl-Sepharose, Toyopearl SuperQ-650M)) MGNSKSGALSKEILEELQLNTKFSEEELCSWYQSFLKDCPTGRITQQQFQSIYAKFFPDTDPKAYAQHVFRSFDSNLDGTLDFKEYVIALHMTTAGKTNQKLEWAFSLYDVDGNGTISKNEVLEIVMAIFKMITPEDVKLLPDDENTPEKRAEKIWKYFGKNDDDKLTEKEAIEGTLANKEILRLIQFEPQKVKEKMKNA please.
Given back: 33.6

---
Asked: Entry human recoverin mutant K119A (natural protein, UniProt P35243 1-200, looked up, myristoylated (fraction of non-myristoylated forms did not exceed 16%), recoverin, human, UniProt P35243, C-terminal 'gray' cluster mutant; Parent construct as m1; source: E. coli, expressed and purified similarly to the rWT protein (phenyl-Sepharose, Toyopearl SuperQ-650M)) MGNSKSGALSKEILEELQLNTKFSEEELCSWYQSFLKDCPTGRITQQQFQSIYAKFFPDTDPKAYAQHVFRSFDSNLDGTLDFKEYVIALHMTTAGKTNQKLEWAFSLYDVDGNGTISANEVLEIVMAIFKMITPEDVKLLPDDENTPEKRAEKIWKYFGKNDDDKLTEKEFIEGTLANKEILRLIQFEPQKVKEKMKNA has what Dimer 50 kDa, %?
Given back: 36.7
